Target: T1, CD73 on the surface of human cells (human, UniProt P21589 27-549)
T1 construct: whole, on cells; The cell line of each value is named under assay or readout; also called CD73 on the surface of tumor cells; CD73 enzyme on the surface of MDA-MB-231 cells
T1 sequence (looked up): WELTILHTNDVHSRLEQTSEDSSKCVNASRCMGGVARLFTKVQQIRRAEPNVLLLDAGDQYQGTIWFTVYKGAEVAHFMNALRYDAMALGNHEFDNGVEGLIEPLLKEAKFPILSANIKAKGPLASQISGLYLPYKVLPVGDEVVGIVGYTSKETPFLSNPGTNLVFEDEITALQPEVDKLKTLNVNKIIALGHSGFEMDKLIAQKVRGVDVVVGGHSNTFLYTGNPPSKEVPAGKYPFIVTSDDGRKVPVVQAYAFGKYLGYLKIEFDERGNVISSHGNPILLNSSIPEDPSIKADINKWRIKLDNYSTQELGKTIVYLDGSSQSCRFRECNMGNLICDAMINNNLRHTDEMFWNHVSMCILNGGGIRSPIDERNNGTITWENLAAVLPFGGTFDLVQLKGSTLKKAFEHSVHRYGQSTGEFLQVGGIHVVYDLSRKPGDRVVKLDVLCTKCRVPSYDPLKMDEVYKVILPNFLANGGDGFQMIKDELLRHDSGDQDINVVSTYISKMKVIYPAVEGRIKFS
Assay: Flow cytometry on SW1573 cells, PE-labelled secondary antibody [panel A]
REPORTED PROPERTY: Max MFI (MFI)

INSERT INTO assay_data (binder, reported_measurement) VALUES
  ('chimeric nanobody 5-E11 (Fc fusion, Human-alpaca chimeric antibody (VHH on hIgG1 Fc); Only the VHH is tied to the tested molecule; also called original antibody 5-E11) VHH: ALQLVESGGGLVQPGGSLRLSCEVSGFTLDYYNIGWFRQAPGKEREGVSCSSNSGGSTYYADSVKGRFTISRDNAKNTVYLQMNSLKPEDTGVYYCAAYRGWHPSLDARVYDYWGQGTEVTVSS', 69600),
  ('chimeric nanobody 4-B02 (Fc fusion, Human-alpaca chimeric antibody) VHH: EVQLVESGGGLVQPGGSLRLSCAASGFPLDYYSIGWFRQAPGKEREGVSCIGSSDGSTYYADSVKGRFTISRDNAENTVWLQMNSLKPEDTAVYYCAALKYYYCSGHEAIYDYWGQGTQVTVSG', 73800),
  ('chimeric nanobody 3-D7 (Fc fusion, Human-alpaca chimeric antibody (VHH on hIgG1 Fc); Only the VHH is tied to the tested molecule; 37-39 exist for 3-D7-FC1/FC2/FC3; also called original antibody 3-D7) VHH: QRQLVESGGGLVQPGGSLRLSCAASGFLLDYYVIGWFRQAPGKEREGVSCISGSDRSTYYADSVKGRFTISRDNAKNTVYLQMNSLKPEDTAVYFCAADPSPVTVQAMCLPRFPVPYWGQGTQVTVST', 71000),
  ('chimeric nanobody 4-D04 (Fc fusion, Human-alpaca chimeric antibody) VHH: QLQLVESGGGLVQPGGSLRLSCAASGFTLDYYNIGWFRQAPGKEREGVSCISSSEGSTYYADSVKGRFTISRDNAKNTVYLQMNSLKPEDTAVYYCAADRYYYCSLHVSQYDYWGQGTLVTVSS', 71300);
